Values compiled from the supplement of paper PMC12494721.

Test system: Escherichia coli IAI1
Assay: fold change of Putrescine concentration vs plate DMSO controls (fold change (ratio)); higher = more amine produced, active = hit call of the paper (significant change in both replicates, either direction)
Conditions: incubation time: 27 h, anaerobic, 37 °C
Structures can show the parent of a compound that is named as a salt.
In this section we review reported fold change of Putrescine concentration values for a set of molecules.
Please reply with the number alone, leaving off any unit.

{"MOLECULE": "N#Cc1ccc(C(c2ccc(C#N)cc2)n2cncn2)cc1 [Letrozole] (20 µM)", "fold change of Putrescine concentration": 1.03}
{"MOLECULE": "NS(=O)(=O)c1cc2c(cc1C(F)(F)F)NC(Cc1ccccc1)NS2(=O)=O (stereo not given) [Bendroflumethiazide] (20 µM)", "fold change of Putrescine concentration": 0.977}
{"MOLECULE": "CCOc1ccc2nc3cc(N)ccc3c(N)c2c1 [Ethacridine lactate] (20 µM)", "fold change of Putrescine concentration": 1.14}
{"MOLECULE": "C=CCOC(Cn1ccnc1)c1ccc(Cl)cc1Cl (stereo not given) [Enilconazole] (20 µM)", "fold change of Putrescine concentration": 0.862}
{"MOLECULE": "O=C(O)c1cc(-c2ccc(F)cc2F)ccc1O [Diflunisal] (20 µM)", "fold change of Putrescine concentration": 1.07}
{"MOLECULE": "Cc1c(N(C)CS(=O)(=O)O)c(=O)n(-c2ccccc2)n1C [Dipyrone sodium salt] (20 µM)", "fold change of Putrescine concentration": 1.05}
{"MOLECULE": "CC(=O)O[C@H]1C(=O)[C@@]2(C)[C@H]([C@H](OC(=O)c3ccccc3)[C@]3(O)C[C@H](OC(=O)[C@H](O)[C@@H](NC(=O)c4ccccc4)c4ccccc4)C(C)=C1C3(C)C)[C@]1(OC(C)=O)CO[C@@H]1C[C@@H]2O [Paclitaxel] (20 µM)", "fold change of Putrescine concentration": 1.04}
{"MOLECULE": "Cn1c(=O)cc(N2CCC[C@@H](N)C2)n(Cc2ccccc2C#N)c1=O [Alogliptin benzoate] (20 µM)", "fold change of Putrescine concentration": 1.01}

For the molecule shown here, CCCCC(CC)CN1CN(CC(CC)CCCC)CC(C)(N)C1 (stereo not given) [Hexetidine] (20 µM) , give the reported fold change of Putrescine concentration.
1.05

Dear colleague, I am looking for the recorded fold change of Putrescine concentration of the following molecule: CCCCC1(COC(=O)CCC(=O)O)C(=O)N(c2ccccc2)N(c2ccccc2)C1=O [Suxibuzone] (20 µM)
0.993

Can you share its fold change of Putrescine concentration? I mean this molecule: C[C@]12CC[C@H]3C(=CCc4cc(O)ccc43)[C@@H]1CCC2=O [Equilin] (20 µM)
1.07

What measured fold change of Putrescine concentration goes with Nc1nc(N)nc(-c2cc(Cl)ccc2Cl)n1 [Irsogladine maleate] (20 µM) ?
1.04

GET /values?readout=fold change of Putrescine concentration&item= Cc1cc2nc3c(=O)[nH]c(=O)nc-3n(C[C@H](O)[C@H](O)[C@H](O)CO)c2cc1C [Riboflavine] (20 µM)
0.989

What value of measured fold change of Putrescine concentration is listed for Cc1c(N)c(=O)n(-c2ccccc2)n1C [Ampyrone] (20 µM) ?
0.975

Look at this molecule and give its reported fold change of Putrescine concentration. CC(C)=CCOc1ccc(/C=C/C(=O)c2ccc(OCC=C(C)C)cc2OCC(=O)O)cc1 [Sofalcone] (20 µM)
1.01

Fill blank: measured fold change of Putrescine concentration of the molecule CCn1cc(C(=O)O)c(=O)c2cc(F)c(N3CCNCC3)cc21 [Norfloxacin] (20 µM) is ____.
0.612

Name the reported fold change of Putrescine concentration value associated with the molecule CC1(C)S[C@@H]2[C@H](NC(=O)[C@H](NC(=O)N3CCNC3=O)c3ccccc3)C(=O)N2[C@H]1C(=O)O [Azlocillin sodium salt] (20 µM)
0.965

fold change of Putrescine concentration for CCN(CC)CCOc1ccc(C(=C(Cl)c2ccccc2)c2ccccc2)cc1 [(Z,E) Clomiphene citrate] (20 µM) ?
0.961

# lookup: fold change of Putrescine concentration of CC(C)NCC(O)COc1cccc2[nH]ccc12 (stereo not given) [Pindolol] (20 µM)
1.18

So what's the measured fold change of Putrescine concentration for this one? COc1ccc2c(c1)c(CC(=O)O)c(C)n2C(=O)c1ccc(Cl)cc1 [Indomethacin] (20 µM)
1.01

====

# fold change of Putrescine concentration values compiled below
Tested on: Klebsiella aerogenes DSM 30053
Assay: fold change of Putrescine concentration vs plate DMSO controls (fold change (ratio)); higher = more amine produced, active = hit call of the paper (significant change in both replicates, either direction)
Settings: incubation time: 27 h, anaerobic, 37 °C
Where a name gives a salt, the structure may show the parent alone.

Sample answers from the record:
{"MOLECULE": "C[C@H](NCc1ccc(OCc2cccc(F)c2)cc1)C(N)=O [Safinamide] (20 µM)", "TARGET UNDER TEST": "Klebsiella aerogenes DSM 30053", "fold change of Putrescine concentration": "1 (inactive)"}
{"MOLECULE": "C[C@@H]1CN(c2c(F)c(N)c3c(=O)c(C(=O)O)cn(C4CC4)c3c2F)C[C@H](C)N1 [Sparfloxacin] (20 µM)", "TARGET UNDER TEST": "Klebsiella aerogenes DSM 30053", "fold change of Putrescine concentration": "1.16 (inactive)"}

Entry under review: NS(=O)(=O)c1cc(Cl)c(Cl)c(S(N)(=O)=O)c1 [Dichlorphenamide] (20 µM) . Reported fold change of Putrescine concentration?
1.01 (inactive)

For the molecule C[C@]12CC[C@H]3[C@@H](CCC4=CC(=O)CC[C@@]43C)[C@@H]1CC[C@@H]2C(=O)CO [Deoxycorticosterone] (20 µM) , what fold change of Putrescine concentration is on record?
0.962 (inactive)

// fold change of Putrescine concentration lookup, key: CC(C)NCC(O)COc1ccc(CCOCC2CC2)cc1 (stereo unspecified) [Betaxolol hydrochloride] (20 µM)
0.994 (inactive)

Could you share which fold change of Putrescine concentration value was measured for O=C1O[C@H]([C@@H](O)CO)C(O)=C1O [Ascorbic acid] (20 µM) ?
0.978 (inactive)

====

fold change of Putrescine concentration by entry:
Tested on: Klebsiella aerogenes DSM 30053
Assay: fold change of Putrescine concentration vs plate DMSO controls (fold change (ratio)); higher = more amine produced, active = hit call of the paper (significant change in both replicates, either direction)
Settings: incubation time: 27 h, anaerobic, 37 °C
Where a name gives a salt, the structure may show the parent alone.
Just the number, please, no unit after it.

Worked examples follow.
{"COMPOUND": "CN(C)CCN(Cc1cccs1)c1ccccn1 [Methapyrilene hydrochloride] (20 µM)", "fold change of Putrescine concentration": 0.993}
{"COMPOUND": "COc1c(O)cc2c(c1O)[C@@H]1O[C@H](CO)[C@@H](O)[C@H](O)[C@H]1OC2=O [Bergenin] (20 µM)", "fold change of Putrescine concentration": 0.997}
{"COMPOUND": "Cn1cnc([N+](=O)[O-])c1Sc1ncnc2[nH]cnc12 [Azathioprine] (20 µM)", "fold change of Putrescine concentration": 0.99}

Consider now this further compound.
What measured fold change of Putrescine concentration goes with CC/C(=C(/CC)c1ccc(O)cc1)c1ccc(O)cc1 [Diethylstilbestrol] (20 µM) ?
1.01

====

A collection of compounds and their measured fold change of Tryptamine concentration
Tested on: Clostridium sporogenes DSM 1664
Assay: fold change of Tryptamine concentration vs plate DMSO controls (fold change (ratio)); higher = more amine produced, active = hit call of the paper (significant change in both replicates, either direction)
Settings: incubation time: 27 h, anaerobic, 37 °C
Structures can show the parent of a compound that is named as a salt.
Output: the number by itself.

# count of solved cases: 4
{"COMPOUND": "CN(C)CCCN1c2ccccc2Sc2ccccc21 [Promazine hydrochloride] (20 µM)", "MEASURE": "fold change of Tryptamine concentration", "VALUE": 1.1}
{"COMPOUND": "Nc1nc(N)c2nc(-c3ccccc3)c(N)nc2n1 [Triamterene] (20 µM)", "MEASURE": "fold change of Tryptamine concentration", "VALUE": 0.928}
{"COMPOUND": "CO[C@H]1C[C@H](O[C@H]2[C@H](C)[C@@H](O[C@@H]3O[C@H](C)C[C@H](N(C)C)[C@H]3OC(C)=O)[C@@H](C)C[C@@]3(CO3)C(=O)[C@H](C)[C@@H](OC(C)=O)[C@@H](C)[C@@H](C)OC(=O)[C@@H]2C)O[C@@H](C)[C@@H]1OC(C)=O [Troleandomycin] (20 µM)", "MEASURE": "fold change of Tryptamine concentration", "VALUE": 0.0831}
{"COMPOUND": "CS(=O)(=O)CCNCc1ccc(-c2ccc3ncnc(Nc4ccc(OCc5cccc(F)c5)c(Cl)c4)c3c2)o1 [Lapatinib] (20 µM)", "MEASURE": "fold change of Tryptamine concentration", "VALUE": 0.977}

With those in mind, consider the next compound.
fold change of Tryptamine concentration lookup needed for CCCCCCCCCCCCCCCC[N+](C)(C)CCN(Cc1ccc(OC)cc1)c1ncccn1 [Thonzonium bromide] (20 µM) , thanks.
0.673
